Biological target: human Syk protein tyrosine kinase (Homo sapiens)
Experiment: Syk kinase assay (heterogenous DELFIA, poly(Glu, Tyr) substrate)
Settings: ATP 1 μM
MEASURED_METRIC: pIC50
// pIC50 is dimensionless: -log10 of concentration (M)

Entry "Cc1cccc(Nc2ccnc(Nc3cccc(OCCn4ccnc4)c3)n2)c1S(N)(=O)=O" — recorded pIC50 = 6.82

----------
Target: human ZAP-70 protein tyrosine kinase (Homo sapiens)
Sequence (P43403 whole entry): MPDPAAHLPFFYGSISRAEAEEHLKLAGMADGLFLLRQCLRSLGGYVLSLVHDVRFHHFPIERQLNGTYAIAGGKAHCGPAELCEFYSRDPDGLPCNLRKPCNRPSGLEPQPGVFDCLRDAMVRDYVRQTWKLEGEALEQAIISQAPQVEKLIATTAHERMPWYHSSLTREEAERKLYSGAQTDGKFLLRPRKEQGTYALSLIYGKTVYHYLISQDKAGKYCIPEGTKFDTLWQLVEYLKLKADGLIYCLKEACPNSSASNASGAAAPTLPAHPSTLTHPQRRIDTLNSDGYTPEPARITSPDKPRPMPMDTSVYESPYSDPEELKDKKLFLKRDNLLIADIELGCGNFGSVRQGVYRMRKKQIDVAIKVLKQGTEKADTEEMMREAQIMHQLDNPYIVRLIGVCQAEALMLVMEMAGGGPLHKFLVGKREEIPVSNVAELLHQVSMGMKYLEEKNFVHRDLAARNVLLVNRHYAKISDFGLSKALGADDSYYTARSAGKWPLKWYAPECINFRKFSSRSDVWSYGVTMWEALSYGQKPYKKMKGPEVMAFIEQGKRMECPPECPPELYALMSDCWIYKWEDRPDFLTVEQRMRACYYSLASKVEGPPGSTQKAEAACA
MEASURED_METRIC: IC50 (nM)
Record the value in nM, omitting the unit from your answer.

Entry "COc1cc(Nc2nccc(Nc3cccc(OC)c3S(N)(=O)=O)n2)cc(OC)c1OC" — recorded IC50 = 12
